- TEST SYSTEM: human GnRH receptor1 (GnRHR1) (Homo sapiens)
- Sequence (P30968 1-328): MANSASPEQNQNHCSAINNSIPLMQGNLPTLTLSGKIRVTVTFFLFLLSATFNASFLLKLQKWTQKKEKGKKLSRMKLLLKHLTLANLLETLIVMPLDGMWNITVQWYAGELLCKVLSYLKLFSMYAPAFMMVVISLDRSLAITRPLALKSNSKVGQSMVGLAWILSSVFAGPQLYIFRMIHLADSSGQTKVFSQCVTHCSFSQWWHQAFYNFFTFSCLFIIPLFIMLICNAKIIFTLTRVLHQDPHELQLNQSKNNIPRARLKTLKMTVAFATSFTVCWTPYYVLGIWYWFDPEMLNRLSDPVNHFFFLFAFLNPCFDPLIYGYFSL
- ASSAY INFO: Assay of inhibitory effect for the change of calcium levels in GnRH-stimulated cells (hGnRHR1#1 HEK293 cells, FLIPR Calcium Assay Kit)
- CONDITION NOTES: drug concentration at which 50% GnRH-stimulated intracellular calcium flux was inhibited, 10 nM GnRH
Under this convention, true (1) denotes IC50 strictly below 30 nM and false (0) denotes IC50 at or above 30 nM.

{"columns": ["COMPOUND STRUCTURE STRING", "ASSIGNED LABEL"],
 "data": [
  ["COc1ccccc1N(C)S(=O)(=O)c1ccc(Cl)c(-n2c(=O)[nH]c3c(OC)ncnc32)c1", "false (0)"],
  ["COc1cc(Cl)c(-n2c(=O)[nH]c3c(OC)nc(CCO)nc32)cc1OCc1c(F)cccc1OC", "true (1)"],
  ["COc1ccc(F)c(F)c1COc1cc(-n2c(=O)[nH]c3c(OC)nc(CF)nc32)c(Cl)cc1OCC(=O)NCCO", "false (0)"],
  ["COc1cccc(F)c1COc1cc(-n2c(=O)[nH]c3c(OC)nc(CO)nc32)c(Cl)cc1OCC(=O)O", "true (1)"],
  ["COc1ccc(F)c(F)c1COc1cc(-n2c(=O)[nH]c3c(OC)nc(C(F)F)nc32)c(Cl)cc1OCC(=O)N(C)C", "true (1)"],
  ["COc1cc(Cl)c(-n2c(=O)[nH]c3c(OC)ncnc32)cc1OCc1c(OC)ccc(F)c1F", "true (1)"],
  ["COc1cc(F)c(-n2c(=O)[nH]c3c(C)cc(C(=O)O)nc32)cc1SC(C)(C)c1ccccc1Cl", "false (0)"],
  ["COc1ncnc2c1[nH]c(=O)n2-c1cc(OCc2c(OCCNC(C)=O)ccc(F)c2F)ccc1Cl", "false (0)"],
  ["Cc1cc(C(=O)O)nc2c1[nH]c(=O)n2-c1cc(S(=O)(=O)N2CCCCc3ccccc32)ccc1F", "true (1)"],
  ["CC(C)(c1ccccc1)S(=O)(=O)c1ccc(Cl)c(-n2c(=O)[nH]c3ccc(C(=O)O)nc32)c1", "false (0)"],
  ["COc1ccc(F)c(F)c1CN(C(C)=O)c1ccc(Cl)c(-n2c(=O)[nH]c3c(C)cc(C(=O)O)nc32)c1", "false (0)"]
]}

---

- TEST SYSTEM: human GnRH receptor1 (GnRHR1) (Homo sapiens)
- ASSAY INFO: Assay of inhibitory effect for the change of calcium levels in GnRH-stimulated cells (hGnRHR1#1 HEK293 cells, FLIPR Calcium Assay Kit)
- CONDITION NOTES: drug concentration at which 50% GnRH-stimulated intracellular calcium flux was inhibited, 10 nM GnRH
pIC50: −log10 of the molar value.
PARAMETER MEASURED: pIC50

{"columns": ["COMPOUND STRUCTURE STRING", "PARAMETER MEASURED", "VALUE"],
 "data": [
  ["COc1cccc(F)c1C(C)(C)S(=O)(=O)c1ccc(Cl)c(-n2c(=O)[nH]c3c(C)cc(C(=O)O)nc32)c1", "pIC50", 7.62],
  ["COc1cc(Cl)c(-n2c(=O)[nH]c3c(C)nc(N)nc32)cc1OCc1c(OC)ccc(F)c1F", "pIC50", 7.44],
  ["Cc1cc(/C(N)=N/O)nc2c1[nH]c(=O)n2-c1cc(S(=O)(=O)N2CCCCc3ccccc32)ccc1Cl", "pIC50", 7.00],
  ["Cc1cc(CO)nc2c1[nH]c(=O)n2-c1cc(S(=O)(=O)N2CCCCc3ccccc32)ccc1Cl", "pIC50", 7.49],
  ["COc1cccc(F)c1COc1cc(-n2c(=O)[nH]c3c(OC)nc(CF)nc32)c(Cl)cc1OCCO", "pIC50", 7.27],
  ["CCNC(=O)COc1cc(Cl)c(-n2c(=O)[nH]c3c(C(C)=O)nc(C)nc32)cc1OCc1c(F)cccc1OC", "pIC50", 7.72],
  ["CNC(=O)COc1cc(Cl)c(-n2c(=O)[nH]c3c(OC)nc(C(C)=O)nc32)cc1OCc1c(OC)ccc(F)c1F", "pIC50", 7.42]
]}
